# System: cucumber downy mildew
# experimental-protocol: Greenhouse pot seedling assay, cucumber downy mildew
# Type: in vivo
# applied-conditions: 25 ppm; greenhouse
Listed below: control of cucumber downy mildew values for each entry.
Numeric only. Scale: %

Some solved cases for reference:
smiles_input=CNC(=O)c1ccccc1NC(=O)COc1ccc(CNC(=O)c2cc(C)nn2C)cc1 measurement_label="control of cucumber downy mildew" observed_measurement=75
smiles_input=CCNC(=O)c1cccc(C)c1NC(=O)COc1ccc(CNC(=O)c2cc(C)nn2C)cc1 measurement_label="control of cucumber downy mildew" observed_measurement=100
smiles_input=CCc1nn(C)c(C(=O)NCc2ccc(OCC(=O)Nc3ccccc3C(=O)NC)cc2)c1Cl measurement_label="control of cucumber downy mildew" observed_measurement=100

Next:
Check the records and state control of cucumber downy mildew for CNC(=O)c1ccccc1NC(=O)COc1ccc(CNC(=O)c2c(Cl)c(C)nn2C)cc1
100

* * *

# Tested on: cucumber downy mildew
# experimental-protocol: Greenhouse pot seedling assay, cucumber downy mildew
# Type: in vivo
# applied-conditions: 50 ppm; comparative test, Table 18
measurement-label: Control (%)
Your answer should be a number followed by the unit of measure.

compound="COc1ccc(C(=CC(=O)N2CCOCC2)c2ccc(Cl)cc2)cc1OC [dimethomorph, reference compound]" measurement_label="Control (%)" observed_measurement=88%

Specify reported Control (%) for the compound shown: CNC(=O)c1ccccc1NC(=O)COc1ccc(CNC(=O)c2c(Cl)c(C)nn2C)cc1 [Compound 15]
96%

Find the measured Control (%) of C[C@@]1(c2ccc(Oc3ccccc3)cc2)OC(=O)N(Nc2ccccc2)C1=O (racemic) [famoxadone, reference compound] and report it.
74%

Provide Control (%) value for the following compound: COCC(=O)N(c1c(C)cccc1C)C(C)C(=O)OC (stereo not shown) [metalaxyl, reference compound]
29%

* * *

measurement-label: melting point

Below: 5 compounds and their reported melting point.
compound=CCc1nn(C)c(C(=O)NCc2ccc(OCC(=O)Nc3ccccc3C(=O)NC)cc2)c1Cl measurement_label="melting point" observed_measurement="160 to 161 °C"
compound="COC(=O)c1ccccc1NC(=O)C(C)Cl (stereo not drawn)" measurement_label="melting point" observed_measurement="63 to 65 °C"
compound="CNC(=O)c1ccccc1NC(=O)C(C)Cl (stereo not drawn)" measurement_label="melting point" observed_measurement="121 to 122 °C"
compound=COC(=O)c1ccccc1NC(=O)CCl measurement_label="melting point" observed_measurement="92 to 94 °C"
compound=CNC(=O)c1ccccc1NC(=O)COc1ccc(CN)cc1 measurement_label="melting point" observed_measurement="109 to 110 °C"

Please turn your attention to the following entry.
Give the reported value of melting point for this record: CNC(=O)c1ccccc1NC(=O)CCl [VI-1, 2-(2-chloroacetamido)-N-methylbenzamide]
155 to 157 °C
